Catalogue of molecules with associated GI50
- Test system: SK-MEL-28 melanoma
- assay notes: NCI tumour cell line growth inhibition, 48 h

Below are worked cases with known answers.
molecule	tgt	result
O=C1/C(=C/c2ccc(C(F)(F)F)cc2)COc2ccc(O)cc21	SK-MEL-28 melanoma	1.79 µM
CC1(C)CC(O)CCCCCCOc2c(CN)cccc2NC(=O)c2nc(cnc2N)-c2ccc(cc2)S1(=O)=O (centres undefined)	SK-MEL-28 melanoma	1.13 µM
C=CC1=C(C)C(Cc2[nH]c(/C=c3\[nH]/c(=C/C4=NC(=O)C(C)/C4=C\C)c(C)c3CCC(=O)O)c(CCC(=O)OC)c2C)NC1=O (centres undefined)	SK-MEL-28 melanoma	14.8 µM
CCNC(=O)CCCCC(=O)c1c(C)[nH]c(/C=C2\N=C(c3ccc[nH]3)C=C2OC)c1C	SK-MEL-28 melanoma	1.66 µM
COc1ccc2nc(C3=CN(C4OC(CO)C(O)C(O)C4O)C4C=CC=CC34)sc2c1 (centres undefined)	SK-MEL-28 melanoma	> 100 µM

Now look at this one.
Request: Any idea what GI50 was measured for `O=C1C(Cl)=C(Nc2ccc3c(c2NC2=C(Cl)C(=O)c4ccccc4C2=O)C(=O)c2ccccc2C3=O)C(=O)c2ccccc21` ?
Response: 2.87 µM
